# test-protocol: Acute toxicity, intragastric route, mice (LD50, Lichtfield and Wilcoxon)
# condition-set: mouse, in vivo, po
measurement-label: LD50 (mg/kg)
One number for each entry, in mg/kg.

In: Report LD50, nothing else, for this compound: CN1CCc2c3n(c4c(O)cccc24)C(=O)CCC31 (stereo not shown)
Out: 527
